target: Estrogen receptor (Rattus norvegicus) (UniProt P06211+Q62986); experiment: Estrogenic activity as mean uterine weight in rats after 10 ug dose; assay type: functional
endpoint: Mean weight (mg)

Some compounds with known Mean weight results, for comparison:
O=c1c(-c2ccccc2)c(-c2ccc(OCCN3CCCC3)cc2)oc2ccccc12; 13.2
O=c1c(-c2ccccc2)c(-c2ccccc2)oc2cc(OCCN3CCCC3)ccc12; 11.1
C1=C(c2ccccc2)C(c2ccc(OCCN3CCCC3)cc2)Oc2ccccc21 (stereo not given); 24.6

A. COc1ccc2c(c1)OC(c1ccc(OCCN3CCCC3)cc1)C(c1ccccc1)=C2 (stereo not given)
B. COc1ccc2c(c1)OC(c1ccc(OCCN3CCCC3)cc1)C(c1ccccc1)C2=O (stereo not given)
Problem: Record comparison, field Mean weight: mark the lower of A and B . To answer, give the label that identifies your chosen option.
Solution: B

* * *

target: Estrogen receptor (Rattus norvegicus) (UniProt P06211+Q62986); test: Antiestrogenic activity in presence of estradiol as mean uterine weight in rats after 10 ug dose; assay type: functional
endpoint: Mean weight (mg)

c1ccc(C2Cc3ccccc3OC2c2ccc(OCCN3CCCC3)cc2)cc1 (stereo not drawn); 57.2
O=c1c(-c2ccccc2)c(-c2ccc(OCCN3CCCC3)cc2)oc2ccccc12; 40.3
COc1ccc2c(c1)OC(c1ccc(OCCN3CCCC3)cc1)C(c1ccccc1)C2=O (stereo not drawn); 46.5
Oc1ccc(C2Oc3ccccc3CC2c2ccccc2)cc1 (stereo not drawn); 59
COc1ccc2c(c1)OC(c1ccc(OCCN3CCCC3)cc1)C(c1ccccc1)=C2 (stereo not drawn); 28.3

1. c1ccc(C2=C(c3ccc(OCCN4CCCC4)cc3)Oc3ccccc3C2)cc1
2. Oc1ccc(C2Oc3ccccc3C=C2c2ccccc2)cc1 (stereo not drawn)
Problem: Task for the reader: decide whether 1 or 2 has the larger Mean weight. To answer, give the label that identifies your chosen option.
Solution: 2
(2: 48.8 mg, 1: 29.4 mg)

* * *

biological target: Estrogen receptor (Rattus norvegicus) (UniProt P06211+Q62986); assay: Estrogenic activity as mean uterine weight in rats after 1 mg dose; type: functional
endpoint: Mean weight (mg)

Some compounds with known Mean weight results, for comparison:
Oc1ccc(C2=C(c3ccccc3)Cc3ccccc3O2)cc1; 26.2
c1ccc(C2Cc3ccccc3OC2c2ccc(OCCN3CCCC3)cc2)cc1 (stereo not given); 12.3
Oc1ccc(C2Oc3ccccc3C=C2c2ccccc2)cc1 (stereo not given); 13.8

P. Oc1ccc(C2Oc3ccccc3CC2c2ccccc2)cc1 (stereo not given)
Q. c1ccc(C2=C(c3ccc(OCCN4CCCC4)cc3)Oc3ccccc3C2)cc1
Problem: Record comparison, field Mean weight: mark the lower of P and Q . To answer, give the label that identifies your chosen option.
Solution: P
